Target: vBcl-2–NM23-H2 complex (Human gammaherpesvirus 8, UniProt Q76RI8, N67D/V117A)
Assay: HTRF protein-protein interaction assay
MEASURED PARAMETER: IC50

// sample Cc1nc(Nc2nc3ccccc3o2)[nH]c(=O)c1C , its IC50 was ~64 nM

---

Molecular target: vBcl-2 (Human gammaherpesvirus 8, UniProt Q76RI8, N67D/V117A)
Test: surface plasmon resonance
MEASURED PARAMETER: pKd
On this scale, pKd is minus log10 of a concentration expressed in M (mol/L).

// sample Cc1nc(Nc2nc3ccccc3o2)[nH]c(=O)c1C , its pKd was 6.06
